- subject_of_test: recombinant human CB1 (hCB1) (Homo sapiens)
- Sequence (P21554 whole entry): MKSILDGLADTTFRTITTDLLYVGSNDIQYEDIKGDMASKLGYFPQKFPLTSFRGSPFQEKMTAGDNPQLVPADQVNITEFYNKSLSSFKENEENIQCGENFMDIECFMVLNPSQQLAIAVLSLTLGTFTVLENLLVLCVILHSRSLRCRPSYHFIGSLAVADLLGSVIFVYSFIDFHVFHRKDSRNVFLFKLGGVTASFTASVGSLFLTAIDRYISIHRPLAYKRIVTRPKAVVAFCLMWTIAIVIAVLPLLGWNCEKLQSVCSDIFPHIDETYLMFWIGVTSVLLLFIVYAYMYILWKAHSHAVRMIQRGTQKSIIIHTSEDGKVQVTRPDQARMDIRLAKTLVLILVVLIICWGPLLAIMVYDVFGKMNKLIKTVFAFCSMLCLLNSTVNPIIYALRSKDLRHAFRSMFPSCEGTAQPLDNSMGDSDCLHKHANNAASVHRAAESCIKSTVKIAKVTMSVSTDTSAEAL
- procedure_details: γ-[35S]GTP functional assay, hCB1
observed_property: EC50

>>> df
                                   molecule  endpoint_result
0  CC1(Cc2ccc(Cl)cc2)COc2cc(C(=O)N3CCCCC3)ccc21 (stereo not drawn)          1.36 µM
1  CC1(Cc2ccccc2)COc2ccc(C(=O)NC3CCCCC3)cc21 (stereo not drawn)          > 10 µM
2  CC1(Cc2ccncc2)COc2cc(C(=O)N3CCCCC3)ccc21 (stereo not drawn)          > 10 µM
3  CC1(Cc2ccccc2)COc2cc(C(=O)NC3CCCCC3)ccc21 (stereo not drawn)          > 10 µM
4  CC1(Cc2cccc3ccccc23)COc2cc(C(=O)N3CCCCC3)ccc21 (stereo not drawn)          > 10 µM
5  COc1ccc(CC2(C)COc3cc(C(=O)N4CCCCC4)ccc32)cc1 (stereo not drawn)          > 10 µM
6  CN(C(=O)c1ccc2c(c1)OCC2(C)Cc1ccccc1)C(C)(C)C (stereo not drawn)          2.58 µM
7  CC1(Cc2cccc3ccccc23)COc2cc(C(=O)NC3CCCCC3)ccc21 (stereo not drawn)          > 10 µM

We next turn to a different molecule, shown below.
EC50 of CC1(Cc2ccc3ccccc3c2)COc2cc(C(=O)N3CCCCC3)ccc21 (stereo not drawn) on recombinant human CB1 (hCB1) (Homo sapiens)?
> 10 µM
